- assaySystem: UniProt E9Q4X7
- Sequence (E9Q4X7 as listed by the source): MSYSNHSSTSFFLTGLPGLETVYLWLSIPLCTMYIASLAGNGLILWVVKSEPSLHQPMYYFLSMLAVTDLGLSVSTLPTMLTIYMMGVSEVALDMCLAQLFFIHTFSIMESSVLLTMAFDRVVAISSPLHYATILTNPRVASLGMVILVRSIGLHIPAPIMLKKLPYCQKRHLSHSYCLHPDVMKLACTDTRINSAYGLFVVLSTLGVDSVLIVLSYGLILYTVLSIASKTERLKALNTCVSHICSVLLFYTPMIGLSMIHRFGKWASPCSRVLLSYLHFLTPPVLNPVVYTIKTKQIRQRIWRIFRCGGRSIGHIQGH
- particulars: stereoisomer not certain
endpoint: odorant receptor agonist call

CCCC(=O)C(C)=O = inactive
CC=Cc1ccc(OC)cc1 = inactive
C=CC(=C)CCC=C(C)CCC=C(C)C = inactive
C=CC(C)=CCC=C(C)CCC=C(C)C = inactive
CCCCCCCCCO = inactive
CCCCC(C)=O = inactive
CCCCCCCCCC(=O)[O-].[H+] = inactive
CCCO = inactive
CC(=O)OCC=C(C)C = inactive
CC(=O)OCc1ccccc1 = inactive

Q: Reported odorant receptor agonist call for CCc1ncc(C)nc1CC : what is it?
A: inactive

Q: Continue with C=C(C)C1CC=C(C)CC1 (configuration not stated)
A: inactive

Q: Now this one: CC=CC(=O)C1=C(C)CCCC1(C)C
A: inactive

Q: Lookup CC(C)=CCCC(C)=CCOC(=O)C(C)C
A: inactive

Q: // next record c1ccc2ncccc2c1
A: inactive

Q: Then CCC(C)O (configuration not stated) ?
A: inactive

Q: Try this compound too: CCc1nccnc1CC
A: inactive

----------
- assaySystem: UniProt Q8VG22
- Sequence (whole entry): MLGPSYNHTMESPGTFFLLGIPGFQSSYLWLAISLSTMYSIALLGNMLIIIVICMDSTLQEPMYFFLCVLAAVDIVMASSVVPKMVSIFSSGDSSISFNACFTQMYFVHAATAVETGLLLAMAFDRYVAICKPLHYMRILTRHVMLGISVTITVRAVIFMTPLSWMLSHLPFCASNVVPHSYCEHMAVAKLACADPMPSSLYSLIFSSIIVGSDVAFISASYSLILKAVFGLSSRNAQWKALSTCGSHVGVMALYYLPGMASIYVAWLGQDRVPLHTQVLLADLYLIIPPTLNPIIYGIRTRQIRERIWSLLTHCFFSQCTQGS
- particulars: stereoisomer not certain
Select the correct class. Options are active, inactive and nothing else.

CCOC(=O)C(C)C = inactive
CCCCCCCCCO = inactive
CCCCCCCCCS = inactive
CC(=O)OCC=C(C)C = inactive
CCCCC(C)=O = inactive

Q: Record request — test call for CCCCOC(=O)C(C)OC(=O)CCC (centres undefined)
A: inactive

Q: Follow-up item: CCCCCCO
A: active

Q: Do the same for CCCCCCC(C)=O please
A: inactive

Q: And then O=C(c1ccccc1)c1ccccc1 , what is it?
A: inactive

Q: Do the same for CCCCOC=O please
A: inactive

Q: Next compound: CCCCCCCCS
A: inactive

Q: Quick one: CCCCCOC(=O)CCCCC
A: inactive

Q: What about CCCCCC(=O)CC ?
A: inactive

Q: Next: C=CCOC(=O)CCCCCC
A: inactive

Q: # repeat for CCCCCCCC(=O)[O-].[H+]
A: inactive

Q: # repeat for CC(C)=CCCC(C)=CCO
A: inactive

Q: Next: CCCCCC=O
A: inactive

Q: Can you handle CCC(=O)C(=O)CC next?
A: active

Q: // repeat for CC(=O)OCc1ccccc1 and report
A: active

Q: Follow-up item: CCC(C(=O)O)c1ccccc1 (centres undefined)
A: inactive

Q: Same read-out for CCCCCC1=C(C)CCC1=O ?
A: active

Q: Same question for CCCCCO please.
A: active

Q: # repeat for CC(=O)Oc1ccccc1
A: active

Q: Now consider C=C(C)C1CCC(C)C(=O)C1 (centres undefined) and answer again.
A: active

Value source: the M2OR odorant receptor database
